tested on: HCT-116; test: Growth inhibition of human HCT116 cells after 4 hrs by MTT assay; assay type: functional, cell-based; settings: HCT-116, 4 h
MEASURE: IC50 (µM)
The reply should contain only the number, in µM.

Endpoint output: IC50 of COc1ccc(-c2cc(O)c(-c3ccc(OC)cc3)c(O)c2O[C@@H]2O[C@H](CO)[C@@H](O)[C@H](O)[C@H]2O)cc1 . Value?
80

* * *

system: HeLa; assay: Growth inhibition of human HeLa cells after 4 hrs by MTT assay; type: functional, cell-based
MEASURE: IC50 (µM)
The reply should contain only the number, in µM.

CHEMICAL_SMILES	STUDY_SYSTEM	IC50 / µM
COc1ccc(-c2cc(O)c(-c3ccc(OC)cc3)c(O)c2O[C@@H]2O[C@H](CO)[C@@H](O)[C@H](O)[C@H]2O)cc1	HeLa	40

Endpoint output: IC50 of COC1=C(c2ccc(OC)cc2)C(=O)[C@H](O)[C@@](O)(c2ccc(OC)cc2)C1 . Value?
54
